# assay-system: ETS1 (UniProt P14921)
# Sequence: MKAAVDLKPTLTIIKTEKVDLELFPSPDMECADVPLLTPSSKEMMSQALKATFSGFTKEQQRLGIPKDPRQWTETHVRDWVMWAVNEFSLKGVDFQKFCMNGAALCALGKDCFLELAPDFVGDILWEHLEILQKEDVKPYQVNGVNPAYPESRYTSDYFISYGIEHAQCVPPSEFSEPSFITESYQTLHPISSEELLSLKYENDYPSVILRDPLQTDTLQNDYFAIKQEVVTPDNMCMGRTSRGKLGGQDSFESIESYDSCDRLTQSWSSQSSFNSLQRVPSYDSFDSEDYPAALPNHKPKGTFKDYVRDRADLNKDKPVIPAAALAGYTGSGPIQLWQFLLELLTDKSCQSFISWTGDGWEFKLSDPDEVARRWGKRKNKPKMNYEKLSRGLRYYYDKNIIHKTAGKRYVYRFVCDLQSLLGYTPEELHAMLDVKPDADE
# measurement-notes: ETS1 binding intensity (PBM fluorescence) in presence of RUNX1, normalised to ETS1-only experiment (arbitrary fluorescence units); higher = stronger binding
# settings: ETS1 concentration 1 nM; RUNX1 concentration 25 nM
ETS1 binding intensity of 700 or higher: true. Under 700: false.

Worked examples, 8 sequences total:
sequence-chain	label
ATGGAAAGGAAGTCGGTGGGAAACCGCCTCAGCGGT	true
TAAAGAAACAGGATGACTGTGGTTTACTGCGAGCAT	true
GAGGACTTCCGGGTGCGTGTGATATCTGCGGGCCCG	true
TTCAGGTGACTTCCGGCCGGACCGCTGAGGACGCGG	true
AGCTCCAGGAAGAGGGCCTGAAAACCAAACGGGGGA	false
CTCTGAAGGAAGTGATGTTAGACGGCTGTGGGTGGT	true
CTTTCGCTTCCTTTCCCCGCCTCTTAGTCCCGCAGA	false
GTGGATTTCACATCCTGTCCTAGCGGTATGTTTGTC	true

Hi team, for AAAACAACTTCCTTCCCCTCTCTCTCCACCACAGTC , is the recorded ETS1 binding intensity at or above 700?
false

Hi team, for GCCGATGAGGAAGTGAGGGCCAACCACACTGCTCAG , is the recorded ETS1 binding intensity at or above 700?
false

Hi team, for CCTCCAGGAAGCGATAAGTGACTGTGGTGGAGAGAG , is the recorded ETS1 binding intensity at or above 700?
false

====

# assay-system: RUNX1 (UniProt Q01196)
# Sequence (Q01196 whole entry): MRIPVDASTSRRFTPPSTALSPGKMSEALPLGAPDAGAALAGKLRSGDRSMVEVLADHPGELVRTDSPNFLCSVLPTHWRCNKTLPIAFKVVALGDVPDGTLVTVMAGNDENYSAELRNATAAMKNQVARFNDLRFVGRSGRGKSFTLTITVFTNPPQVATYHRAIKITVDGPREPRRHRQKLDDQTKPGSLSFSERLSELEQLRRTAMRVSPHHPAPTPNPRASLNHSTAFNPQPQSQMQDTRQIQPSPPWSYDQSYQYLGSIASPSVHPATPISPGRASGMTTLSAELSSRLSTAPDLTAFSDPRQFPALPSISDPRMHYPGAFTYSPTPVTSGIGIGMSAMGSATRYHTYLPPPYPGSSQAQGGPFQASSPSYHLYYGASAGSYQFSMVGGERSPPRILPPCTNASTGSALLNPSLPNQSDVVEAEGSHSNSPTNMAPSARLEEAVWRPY
# measurement-notes: RUNX1 binding intensity (PBM fluorescence) in presence of ETS1, normalised to RUNX1-only experiment (arbitrary fluorescence units); higher = stronger binding
# settings: RUNX1 concentration 2 nM; ETS1 concentration 25 nM
I'd appreciate it if you could supply RUNX1 binding intensity values for the items below.

sequence-chain	RUNX1 binding intensity
CAGAGAAACAGGAAGAACAGTGGTTTCAACTGAAAT	939
CCTTGCAGCAACGGATGTGGGTTTTTTTTTTTCTTT	10500
GCCCAGGGCGGCCGGAAGTTTGCGGGGCGGGGCGGA	1480
GAGGCGTTTCCGCCTCCTTTTCGCGGTTGCCTTCTC	2790
GGTTCTCTAGGGAGAGGATGTGGGTTTGTCTCTGGG	1570

Record RUNX1 binding intensity for all entries; do not skip any.
1. CAGGCCTTTCCTGCTATCGTTTGTGGTTTGAGCAGT
2. GGCTTCCTGCCCAACTACCAAGAAAAAGCCACAAAG
3. GGACCGGAAGTAGGTTTCTACCCGACCGCATTTTAC

1. 3830
2. 2040
3. 2740
